target: T1, human prostate specific membrane antigen (PSMA), full-length, on cells (human, UniProt Q04609 1-750); experiment: FMAT cell binding, huPSMA CHO cells, after 4 days in human serum at 37 C
T1 construct: also called huPSMA; human PSMA
T1 sequence (Q04609 whole entry): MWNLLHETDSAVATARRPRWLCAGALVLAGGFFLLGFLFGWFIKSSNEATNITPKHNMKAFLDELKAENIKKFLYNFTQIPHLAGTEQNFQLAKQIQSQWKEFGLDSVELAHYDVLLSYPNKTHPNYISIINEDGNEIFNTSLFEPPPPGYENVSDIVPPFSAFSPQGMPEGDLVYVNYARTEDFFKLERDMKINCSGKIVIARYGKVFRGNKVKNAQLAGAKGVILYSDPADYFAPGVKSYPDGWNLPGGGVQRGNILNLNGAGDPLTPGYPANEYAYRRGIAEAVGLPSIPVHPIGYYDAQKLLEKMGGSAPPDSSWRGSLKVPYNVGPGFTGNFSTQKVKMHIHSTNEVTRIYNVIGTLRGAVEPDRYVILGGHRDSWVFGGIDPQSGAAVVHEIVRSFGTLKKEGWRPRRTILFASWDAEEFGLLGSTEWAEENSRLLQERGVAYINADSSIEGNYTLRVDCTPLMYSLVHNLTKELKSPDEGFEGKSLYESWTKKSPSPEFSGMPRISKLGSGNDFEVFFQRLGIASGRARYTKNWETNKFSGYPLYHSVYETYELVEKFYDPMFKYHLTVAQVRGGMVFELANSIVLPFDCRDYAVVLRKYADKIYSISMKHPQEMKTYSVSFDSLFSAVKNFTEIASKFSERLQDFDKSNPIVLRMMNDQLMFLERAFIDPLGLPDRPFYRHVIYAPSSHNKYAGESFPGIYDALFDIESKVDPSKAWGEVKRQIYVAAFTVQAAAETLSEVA
I'd be grateful if you could share measured EC50 for these entries.
Numeric only. Scale: pM

INPUT: Quick check: EC50 of 1.11-6GS-2.17 (bispecific antibody, linker (G4S)6) EVQLLESGGGLVQPGGSLRLSCAASGFSFSSYALSWVRQAPGKGLEWVSSIGENNDTTDYADNVKGRFTISRDNSKNTLYLQMNSLRVEDTAVYYCVKDGVHWGQGTLVTVSSGGGGSGGGGSGGGGSGGGGSGGGGSGGGGSEVQLVESGGGVVQPGRSLRLSCAASGFSFSGYGMHWVRQAPGKGLEWVAYISYDASNKYYADNVKGRFTISRDNSKNTLYLQMNSLRAEDTAVYYCAKDPAWGLRLGESSSYDFDIWGQGTMVTVSS ?
OUTPUT: 84.4

INPUT: // returns reported EC50 for input 1.11-6GS-2.1 (bispecific antibody, linker (G4S)6; also called 1.11-2.1) EVQLLESGGGLVQPGGSLRLSCAASGFSFSSYALSWVRQAPGKGLEWVSSIGENNDTTDYADNVKGRFTISRDNSKNTLYLQMNSLRVEDTAVYYCVKDGVHWGQGTLVTVSSGGGGSGGGGSGGGGSGGGGSGGGGSGGGGSEVQLVESGGGVVQPGRSLRLSCAASGFSFSGYGMHWVRQAPGKGLEWVAYISYDGSNKYYADSVKGRFTISRDNSKNTLYLQMNSLRAEDTAVYYCAKDPAWGLRLGESSSYDFDIWGQGTMVTVSS
OUTPUT: 73.6

INPUT: Record request: EC50 value, item 1.16-6GS-2.17 (bispecific antibody, linker (G4S)6) EVQLLESGGGLVQPGGSLRLSCAASGFSFSSYALSWVRQAPGKGLEWVSSIGENNHTTDYADTVKGRFTISRDNSKNTLYLQMNSLRVEDTAVYYCVKDGVHWGQGTLVTVSSGGGGSGGGGSGGGGSGGGGSGGGGSGGGGSEVQLVESGGGVVQPGRSLRLSCAASGFSFSGYGMHWVRQAPGKGLEWVAYISYDASNKYYADNVKGRFTISRDNSKNTLYLQMNSLRAEDTAVYYCAKDPAWGLRLGESSSYDFDIWGQGTMVTVSS
OUTPUT: 62.8

INPUT: Report EC50 for 1.16-6GS-2.1 (bispecific antibody, linker (G4S)6) EVQLLESGGGLVQPGGSLRLSCAASGFSFSSYALSWVRQAPGKGLEWVSSIGENNHTTDYADTVKGRFTISRDNSKNTLYLQMNSLRVEDTAVYYCVKDGVHWGQGTLVTVSSGGGGSGGGGSGGGGSGGGGSGGGGSGGGGSEVQLVESGGGVVQPGRSLRLSCAASGFSFSGYGMHWVRQAPGKGLEWVAYISYDGSNKYYADSVKGRFTISRDNSKNTLYLQMNSLRAEDTAVYYCAKDPAWGLRLGESSSYDFDIWGQGTMVTVSS please.
OUTPUT: 100

# credit: patent US20200131274A1
